So I've got a bunch of binders here, and I need their pKi values.
- assay.target: T1, human recombinant melanocortin-4 receptor (human, UniProt P32245 1-332)
- T1 construct: whole, on cells; cAMP assays used the whole cells; also called hMC4-R; MC4-R
- T1 sequence (P32245 whole entry): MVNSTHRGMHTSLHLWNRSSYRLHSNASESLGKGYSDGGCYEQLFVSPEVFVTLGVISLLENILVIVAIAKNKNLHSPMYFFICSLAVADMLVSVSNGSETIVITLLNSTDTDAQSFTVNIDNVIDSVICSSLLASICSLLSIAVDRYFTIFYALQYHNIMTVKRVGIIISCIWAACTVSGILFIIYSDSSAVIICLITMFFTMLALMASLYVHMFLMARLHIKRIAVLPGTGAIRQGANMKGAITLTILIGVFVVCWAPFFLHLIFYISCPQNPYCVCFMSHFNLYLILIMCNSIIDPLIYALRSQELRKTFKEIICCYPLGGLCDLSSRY
- experimental.protocol: competitive inhibition of [I125]-NDP-α-MSH, hMC4-R HEK-293 membranes
Numbered stars: 1 amine (or outer) side, 2 acyl side, 3 side chain; on linkers, the order of the positions; unused ones are H or OH. Bridge positions count the residues as written; N and C are the ends. Square brackets hold non-standard residues; d marks the D form. * marks the point of attachment. Pro(trans-4-NH2) = O=C([C@@H]1C[C@@H](N[*:3])CN1[*:1])[*:2]; Hyp = O=C(O)[C@@H]1C[C@@H](O)CN1; Orn = NCCC[C@H](N)C(=O)O; Dab = NCC[C@H](N)C(=O)O; Pentanoyl = CCCCC(=O)*
Lab note: report pKi as minus log10 of the concentration in molar units, number only.

Request: Dear colleague, I am looking for the recorded pKi of the following binder: Ac-RD[Pro(trans-4-NH2)][dF]RWK-NH2 (lactam 2-7, also called peptide No. 80) [Ac-Arg-cyclo(Asp-Pro(4R-NH2)-D-Phe-Arg-Trp-Lys)-NH2]
Result: 8.30

Request: Dear colleague, I am looking for the recorded pKi of the following binder: Ac-RD[Hyp][dF]RWK-NH2 (lactam 2-7, also called peptide No. 79) [Ac-Arg-cyclo(Asp-Hyp-D-Phe-Arg-Trp-Lys)-NH2]
Result: 8.40

Request: Dear colleague, I am looking for the recorded pKi of the following binder: Ac-[dR]DQ[dF]RWK-NH2 (lactam 2-7, also called peptide No. 71) [Ac-D-Arg-cyclo(Asp-Gln-D-Phe-Arg-Trp-Lys)-NH2]
Result: 7.35

Request: Dear colleague, I am looking for the recorded pKi of the following binder: Ac-REK[dF]RW[Orn]-NH2 (lactam 2-7) [Ac-Arg-cyclo(Glu-Lys-D-Phe-Arg-Trp-Orn)-NH2]
Result: 7.82

Request: Dear colleague, I am looking for the recorded pKi of the following binder: RXMFRWX (HELM PEPTIDE1{[ac].R.[O=C([C@H](CCCC(=O)[*:3])N[*:1])[*:2]].[CS(=O)(=O)CC[C@H](N[*:1])C(=O)[*:2]].[dF].R.W.[Dab].[am]}$PEPTIDE1,PEPTIDE1,3:R3-8:R3$$$V2.0; SMILES CC(=O)N[C@@H](CCCNC(=N)N)C(=O)N[C@H]1CCCC(=O)NCC[C@@H](C(N)=O)NC(=O)[C@H](Cc2c[nH]c3ccccc23)NC(=O)[C@H](CCCNC(=N)N)NC(=O)[C@@H](Cc2ccccc2)NC(=O)[C@H](CCS(C)(=O)=O)NC1=O) [Ac-Arg-cyclo(hGlu-Met(O2)-D-Phe-Arg-Trp-Dab)-NH2]
Result: 8.40

Request: Dear colleague, I am looking for the recorded pKi of the following binder: RKXFRWD (HELM PEPTIDE1{[ac].R.K.[Dab].[dF].R.W.D.[am]}$PEPTIDE1,PEPTIDE1,3:R3-8:R3$$$V2.0; SMILES CC(=O)N[C@@H](CCCNC(=N)N)C(=O)N[C@H]1CCCCNC(=O)C[C@@H](C(N)=O)NC(=O)[C@H](Cc2c[nH]c3ccccc23)NC(=O)[C@H](CCCNC(=N)N)NC(=O)[C@@H](Cc2ccccc2)NC(=O)[C@H](CCN)NC1=O, also called peptide No. 121) [Ac-Arg-cyclo(Lys-Dab-D-Phe-Arg-Trp-Asp)-NH2]
Result: 9.40

Request: Dear colleague, I am looking for the recorded pKi of the following binder: Ac-REN[dF]RW[Orn]-NH2 (lactam 2-7, also called peptide No. 161) [Ac-Arg-cyclo(Glu-Asn-D-Phe-Arg-Trp-Orn)-NH2]
Result: 8.22

Request: Dear colleague, I am looking for the recorded pKi of the following binder: Pentanoyl-EH[dF]R[Dab]W-NH2 (lactam 1-5, also called peptide No. 153) [n-C4H9-CO-cyclo(Glu-His-D-Phe-Arg-Dab)-Trp-NH2]
Result: 6.44

Request: Dear colleague, I am looking for the recorded pKi of the following binder: RXQFRWX (N-acetyl; X2 = hGlu; D-Phe 4; X7 = Dab; side-chain lactam hGlu2-Dab7; C-terminal amide, also called peptide No. 147) [Ac-Arg-cyclo(hGlu-Gln-D-Phe-Arg-Trp-Dab)-NH2]
Result: 7.70
